system: α7 integrin (LacZ reporter in α7LacZ+/− myoblasts); assay: qHTS of the LOPAC library and MLSMR (online screen, α7LacZ+/− myoblasts); conditions: Mus musculus, Myoblast, 48 h, read-out: Activity at 1.530 uM [%] **
Reported activation at 1.53 µM is given for each of the following compounds.
Could you give me the number in %? Just the number is fine.

These solved cases illustrate the format of a correct answer.
Compound	Metric	Result
CCOc1ccc(S(=O)(=O)NCCC(=O)NCC(c2cccs2)N2CCOCC2)cc1 (stereo not drawn) [Compound 14]	activation at 1.53 µM	3.54
O=S(=O)(c1ccccc1)N1CCCC(c2nc(O)c3nnn(Cc4cccc(Cl)c4)c3n2)C1 (stereo not drawn) [Compound 161]	activation at 1.53 µM	-17.7
CC(C)(C)c1ccc(C(=O)OCC(=O)Nc2sc3c(c2C#N)CCC3)cc1 [Compound 85]	activation at 1.53 µM	13.3
CC(=O)c1cccc(NC(=O)C(=O)Nc2cccc3ccccc23)c1 [Compound 197]	activation at 1.53 µM	15.7
O=C(Cn1cccc1C(=O)c1ccccc1)NCCCc1ccccc1 [Compound 43]	activation at 1.53 µM	43.9

Here's the next entry for you.
Q: Please look up its activation at 1.53 µM: O=[N+]([O-])c1ccc(N2CCN(c3ccccc3F)CC2)nc1 [Compound 49]
A: 15.5
